assay: Concentration of (poly)phenolic metabolites in fasting urine at baseline, 24 h after single MP beverage and 15th day after 14-day MP intake (UHPLC-QQQ-MS); conditions: in vivo
Field 'label' (enum: y / n). Set to y when Concentration in fasting urine, Mean ± std Error, 24 h (Fasting) is strictly under 2000 nM; else n.

1) O=C(O)Cc1ccc(O)cc1 [4-Hydroxyphenylacetic acid]: n
2) Cc1ccc(C(=O)NCC(=O)O)cc1 [4-Methylhippuric acid]: y
3) COc1cc(/C=C/C(=O)O)ccc1O [Ferulic acid]: y
4) O=C(O)/C=C/c1cccc(O)c1 [m-Coumaric acid]: y
5) COC(=O)CNC(=O)c1ccccc1 [Methyl hippurate]: n

* * *

test: clinical; assay type: in vivo, human; settings: oral; human plasma, 0−24 h, after MP + VC (mango pulp 500 g + vitamin C 100 mg) beverage, mean ± standard error; read-out: Cmax
endpointLabel: Cmax (nM)

1. O=C(O)c1cc(O)c(O)c(O)c1 [Compound C1, gallic acid]: 21.1

* * *

experiment: Concentration of (poly)phenolic metabolites in fasting urine at baseline, 24 h after single MP beverage and 15th day after 14-day MP intake (UHPLC-QQQ-MS); settings: in vivo
Field 'label' (enum: Yes / No). Set to Yes when Concentration in fasting urine, Mean ± std Error, 0 h (Fasting) is strictly under 3000 nM; else No.

1) O=C(O)Cc1ccc(O)cc1 [4-Hydroxyphenylacetic acid]: No
2) COc1cc(/C=C/C(=O)O)ccc1O: Yes
3) Cc1ccc(C(=O)NCC(=O)O)cc1: Yes
4) O=C(O)CCc1cccc(O)c1 [3-Hydroxyphenylpropanoic acid]: No
5) O=C(O)/C=C/c1cccc(O)c1: Yes
6) COC(=O)CNC(=O)c1ccccc1 [Methyl hippurate]: Yes

* * *

experiment: clinical; assay type: in vivo, human; settings: oral, 500 g; human plasma, after MP beverage, mean ± standard error; read-out: Tmax
endpointLabel: Tmax (h)

1. O=C(O)c1cc(O)c(O)c(O)c1: 2.2

* * *

assay: clinical; format: in vivo, human; settings: oral; human plasma, after MP + VC beverage, mean ± standard error; read-out: Tmax
endpointLabel: Tmax (h)

1. O=C(O)c1cc(O)c(O)c(O)c1: 2

* * *

experiment: clinical; type: in vivo, human; conditions: oral; human plasma, 0−24 h, after VC (vitamin C 100 mg) beverage, mean ± standard error; read-out: Cmax
endpointLabel: Cmax (nM)

1) O=C(O)c1cc(O)c(O)c(O)c1: 5.3

* * *

assay: clinical; assay type: in vivo, human; settings: human, in vivo
Known Cmax of a selection of molecules
endpointLabel: Cmax (µM)

1. O=C(O[C@@H]1O[C@H](CO)[C@@H](O)[C@H](O)[C@H]1O)c1cc(O)c(O)c(O)c1: 0.0134
2. O=S(=O)(O)Oc1cccc(O)c1O: 10

* * *

experiment: Concentration of (poly)phenolic metabolites in fasting urine at baseline, 24 h after single MP beverage and 15th day after 14-day MP intake (UHPLC-QQQ-MS); conditions: human, urine, oral
Field 'label' (enum: 1.0 / 0.0). Set to 1.0 when concentration at 15 day is strictly under 0.5 µM; else 0.0.

1) O=C(O)/C=C/c1ccc(O)c(O)c1: 1.0
2) O=C(O)Cc1ccc(O)c(O)c1 [3,4-Dihydroxyphenylacetic acid]: 0.0
3) COc1cc(C(=O)O)ccc1O: 0.0
4) O=C(O)C=Cc1ccc(O)cc1: 1.0
5) Oc1ccccc1O: 0.0
6) O=C(O)c1ccc(O)cc1 [4-Hydroxybenzoic acid]: 0.0
7) O=C(O)c1cc(O)ccc1O [2,5-Dihydroxybenzoic acid]: 0.0

* * *

test: clinical; type: in vivo, human; conditions: oral, 500 g; human plasma, after MP beverage, linear trapezoidal method, mean ± standard error; read-out: AUC0–24h
endpointLabel: AUC(0-t) (µM·h)

1) O=C(O)c1cc(O)c(O)c(O)c1: 0.0645

* * *

test: Concentration of (poly)phenolic metabolites in fasting urine at baseline, 24 h after single MP beverage and 15th day after 14-day MP intake (UHPLC-QQQ-MS); conditions: human, urine, oral, 500 g
Known concentration at 24 h of a selection of compounds
endpointLabel: concentration at 24 h (µM)

1. O=C(O)c1cc(O)ccc1O [2,5-Dihydroxybenzoic acid]: 4.9
2. O=C(O)c1cc(O)c(O)c(O)c1 [Compound C1, gallic acid]: 0.2
3. Oc1ccccc1O [Catechol]: 15.7
4. O=C(O)c1ccc(O)cc1 [4-Hydroxybenzoic acid]: 5.9
5. O=Cc1ccc(O)cc1 [Compound 4-Hydroxybenzaldehyde]: 0.2
6. O=C(O)Cc1ccc(O)c(O)c1 [3,4-Dihydroxyphenylacetic acid]: 4.5
7. COc1cc(C(=O)O)ccc1O [Vanillic acid]: 4.4
8. O=C(O)C=Cc1ccc(O)cc1 [p-Coumaric acid]: 0.4
9. O=C(O)CNC(=O)c1ccccc1 [Hippuric acid]: 3710
10. O=C(O)c1ccc(O)c(O)c1 [3,4-Dihydroxybenzoic acid]: 1.1
11. COc1cc(C(=O)O)cc(OC)c1O [Syringic acid]: 5.9
12. O=C(O)/C=C/c1ccccc1O [o-Coumaric acid]: 0.9
13. O=C(O)c1cccc(O)c1O [2,3-Dihydroxybenzoic acid]: 0.2

* * *

experiment: Concentration of (poly)phenolic metabolites in fasting urine at baseline, 24 h after single MP beverage and 15th day after 14-day MP intake (UHPLC-QQQ-MS); settings: human, urine, oral, 500 g
endpointLabel: concentration at 0 h

1. O=C(O)c1cccc(O)c1O [2,3-Dihydroxybenzoic acid]: 0.3 µM
2. COc1cc(C(=O)O)cc(OC)c1O: 3.6 µM
3. O=C(O)c1cc(O)c(O)c(O)c1: 0.2 µM
4. O=C(O)c1ccc(O)c(O)c1 [3,4-Dihydroxybenzoic acid]: 2.4 µM
5. O=C(O)c1ccc(O)cc1 [4-Hydroxybenzoic acid]: 6.1 µM
6. O=C(O)Cc1ccc(O)c(O)c1 [3,4-Dihydroxyphenylacetic acid]: 8 µM
7. O=C(O)c1cc(O)ccc1O [2,5-Dihydroxybenzoic acid]: 6.7 µM
